Assay: in vitro
Settings: human
Counter-ions that a name gives are not always drawn.
What viability at 1 µM was measured for each of the following?
I only need the number, in %, no unit after it.

Input: Which viability at 1 µM is listed for `Nc1nc2c(ncn2COCCO)c(=O)[nH]1` ?
Output: 88

Input: Bench note: what viability at 1 µM did NC12CC3CC(CC(C3)C1)C2 [Amantadine hydrochloride] show?
Output: 67

Input: I am curious: what viability at 1 µM value has been reported for `NC(=O)c1ncn([C@@H]2O[C@H](CO)[C@@H](O)[C@H]2O)n1` ?
Output: 81

----------
For each record, write down the corresponding IC50.
Test system: ecotropic pseudo-typed lentiviral particles (luciferase) in PM1-mCat1 cells
Assay: Luciferase-based viral integration assay using PM1-mCat1 cells
Conditions: Human immunodeficiency virus 1, read-out: IC50 (in µM), viral integration assay
Give the value, in units of µM, as a plain number.

Input: Reported IC50 for Cc1nc(SCC(=O)NC(C)c2cccs2)c(C#N)c(C)c1C (centres unmarked) : what is it?
Output: 1.99

Input: Data request, read-out IC50, for `O=C(Nc1ccccc1-n1cccn1)c1ccccc1Br`
Output: 1.04

Input: // lookup IC50 for `Cc1cnc2c(S(=O)(=O)N3CCN(Cc4ccc5c(c4)OCCO5)CC3)cccc2c1`
Output: 1.42

Input: What value of measured IC50 is listed for Cc1cccc(C)c1NC(=O)CN1CCCC1c1nc2ccccc2s1 (centres unmarked) ?
Output: 8.88

Input: Any idea what IC50 was measured for `c1csc(-c2csc3nc(CN4CCOCC4)nc(NN4CCCCC4)c23)c1` ?
Output: 2.73

Input: Can you share its IC50? I mean this molecule: `CCn1c(SCC(=O)Nc2ccccc2C#N)nc2ccsc2c1=O`
Output: 1.49

Input: I'd like to know its IC50. The molecule in question is COc1ccc(OC)c(C2CCCN2C(=O)C2CC(=O)N(c3ccccc3)C2)c1 (centres unmarked)
Output: 6.83

Input: Quick check: IC50 of CCC(C)c1ccc(S(=O)(=O)Nc2ccc(F)cc2C)cc1 (centres unmarked) ?
Output: 1.67

Input: Reported IC50, molecule `O=C(Nc1ccccc1N1CCCC1)c1cc(S(=O)(=O)N2CCOCC2)ccc1Cl` : ____
Output: 5.04

Input: Quick one: IC50 for c1ccc(-c2csc3nc(CN4CCOCC4)nc(NCCC4CCCO4)c23)cc1 (centres unmarked) ?
Output: 2.33

Input: Field request: IC50 | item: `O=C(Nc1ccccc1N1CCCCC1)c1cc(S(=O)(=O)N2CCOCC2)ccc1Cl`
Output: 1.78

Input: What does the record list as IC50 for COc1ccc(C2CCCN2C(=O)C2CC(=O)N(c3ccccc3F)C2)c(OC)c1 (centres unmarked) ?
Output: 2.44

Input: # get_value(readout='IC50', item= `CC(=O)c1ccccc1NC(=O)CNc1ccccc1-c1ccccc1` )
Output: 1.94

Input: Give the measured IC50 of c1csc(-c2csc3nc(CN4CCOCC4)nc(NCC4CCCO4)c23)c1 (centres unmarked) .
Output: 6.48

Input: Which IC50 reading was recorded for the molecule `O=C(Nc1ccc2c(c1)OCO2)c1cccc(N2CCCC2=O)c1` ?
Output: 1.58

Input: Report IC50 for `O=S(=O)(c1ccc(CSc2ncnc3scc(-c4ccc(F)cc4)c23)o1)N1CCCC1` please.
Output: 1.67

Input: Using the record for `O=C(Nc1ccccc1O)c1ccccc1Br` , report its IC50.
Output: 4.11

Input: Entry `O=S(=O)(c1ccc(Sc2ncnc3scc(-c4ccc(F)cc4)c23)nc1)N1CCOCC1` : reported IC50 = ?
Output: 6.19

Input: Need IC50 of C=CCNC(=O)CN1CCN(c2nc3ccccc3s2)CC1 [T6471356, C=CCNC(=O)CN1CCN(CC1)C1=NC2=C(S1)C=CC=C2] , thanks.
Output: 2.37

Input: Entry `CS(=O)(=O)c1ccc(NC(=O)CNc2ccccc2-c2ccccc2)cc1` : reported IC50 = ?
Output: 2.08

Input: Endpoint output: IC50 of `Clc1cccc(Nc2nc(CN3CCOCC3)nc3scc(-c4ccccc4)c23)c1` . Value?
Output: 2

Input: Bench note: what IC50 did CC(Nc1nc(CN2CCOCC2)nc2sc3c(c12)CCC3)c1cccc(Cl)c1 (centres unmarked) show?
Output: 1.53

Input: State the recorded IC50 for this entry: `N#Cc1ccccc1S(=O)(=O)N1CCN(Cc2ccc(-c3ccccc3)cc2)CC1`
Output: 6.33

----------
Tested on: HEK293T-mCat1 cells
Settings: 1 µM
Can you tell me Viability [%] for the items I'm about to list?
Give your result in % as a bare value.

Input: Give the measured Viability [%] of `Nc1nccc2c1ncn2[C@@H]1O[C@H](CO)[C@@H](O)[C@H]1O` .
Output: 85

Input: Consider the compound shown here: Nc1nc2c(ncn2CCOCP(=O)(O)O)c(=O)[nH]1 [PMEG hydrate] What is its recorded Viability [%]?
Output: 54

Input: What value of Viability [%] has been recorded for this entry: `Cc1cn([C@H]2C[C@H](N=[N+]=[N-])[C@@H](CO)O2)c(=O)[nH]c1=O`
Output: 89

Input: For the compound `Cl.Nc1ccn([C@@H]2O[C@H](CO)[C@@H](O)[C@@H]2O)c(=O)n1` , what Viability [%] is on record?
Output: 38

----------
Task for the reader: assign each of the following molecules its reported Relative inhibition [%] of mCherry (wild-type RT).
System: lentiviral particles with wild-type HIV-1 reverse transcriptase (mCherry) in HEK293T-mCat1 cells
Experiment: microbe, parasite or virus in culture
Type: cell-based
Details: 1 µM
Unit % implied. Number only.

Input: I'd like to know its Relative inhibition [%] of mCherry (wild-type RT). The molecule in question is Nc1nc2c(ncn2CCOCP(=O)(O)O)c(=O)[nH]1 [PMEG hydrate]
Output: 94

Input: Which Relative inhibition [%] of mCherry (wild-type RT) value is on record for `Cc1cn([C@H]2C[C@H](N=[N+]=[N-])[C@@H](CO)O2)c(=O)[nH]c1=O` ?
Output: 73

Input: Consider the molecule `Nc1nccc2c1ncn2[C@@H]1O[C@H](CO)[C@@H](O)[C@H]1O` and give its measured Relative inhibition [%] of mCherry (wild-type RT).
Output: -25

Input: I have this molecule here, `Cl.Nc1ccn([C@@H]2O[C@H](CO)[C@@H](O)[C@@H]2O)c(=O)n1` , and I need its recorded Relative inhibition [%] of mCherry (wild-type RT).
Output: 98

----------
Test system: lentiviral particles with wild-type HIV-1 reverse transcriptase (mCherry) in HEK293T-mCat1 cells
Assay: microbe, parasite or virus in culture
Format: cell-based
Conditions: Human immunodeficiency virus 1, 48 h; read-out: Relative inhibition [%] of mCherry (wild-type RT)
Structures can show the parent of a compound that is named as a salt.
endpoint: inhibition at 1 µM (%)
Your answer is read as %, so omit the unit and give the number.

Input: Entry Nc1ccn([C@H]2CC[C@@H](CO)O2)c(=O)n1 [2',3'-Dideoxycytidine] has what inhibition at 1 µM?
Output: 100

Input: Consider the compound NC12CC3CC(CC(C3)C1)C2 [Amantadine hydrochloride] and give its measured inhibition at 1 µM.
Output: 6

Input: Would you kindly share the measured inhibition at 1 µM for Nc1nc2c(ncn2COCCO)c(=O)[nH]1 [Acyclovir] ?
Output: 41

Input: What value of measured inhibition at 1 µM is listed for NC(=O)c1ncn([C@@H]2O[C@H](CO)[C@@H](O)[C@H]2O)n1 [Ribavirin] ?
Output: -21

Input: Look at this compound and give its reported inhibition at 1 µM. Cc1c(O)cccc1C(=O)N[C@@H](CSc1ccccc1)[C@H](O)CN1C[C@H]2CCCC[C@H]2C[C@H]1C(=O)NC(C)(C)C [Nelfinavir mesylate hydrate]
Output: 90

Input: Requested read-out: inhibition at 1 µM. Entry: CC(=O)OCC(CCn1cnc2cnc(N)nc21)COC(C)=O [Famciclovir]
Output: 100

----------
Tested on: ecotropic pseudo-typed lentiviral particles (luciferase) in PM1-mCat1 cells
Assay: Luciferase-based viral integration assay using PM1-mCat1 cells
Conditions: Human immunodeficiency virus 1, read-out: IC50 (in µM), viral integration assay
endpoint: IC50 (µM)
Give a bare numeral; the unit µM is implied.

Input: # query: IC50 of entry `CN(C1CCCCC1)S(=O)(=O)c1cccc(C#N)c1`
Output: 5.2

Input: // IC50 lookup, key: Cc1cccn2c(=O)cc(CN3CC(C(=O)N4CCCCC4)Oc4ccccc43)nc12 (stereo not shown)
Output: 2.93

Input: Name the recorded IC50 for `Cc1cc(Cl)c(C)c(S(=O)(=O)NCCCN2CCCC2=O)c1Cl` .
Output: 2.02

Input: Given the compound `O=C(COc1ccccc1-c1ccccc1)NCC1CCCCC1` , what is its reported IC50?
Output: 6.88
